This collection of values is drawn from paper PMC10747599.

# Test system: HBEC-5i cells
# PROCEDURE_DETAILS: MTT cell viability assay, HBEC-5i
# ASSAY_CONDITIONS: 20 µM, HBEC-5i, 48 h
EXPERIMENTAL_ENDPOINT: reduction in cell viability / toxicity

{"COMPOUND": "CCN(CC)CCOc1ccc(C(O)(Cc2ccc(Cl)cc2)c2ccc(C)cc2)cc1 (stereo not shown)", "EXPERIMENTAL_ENDPOINT": "reduction in cell viability / toxicity", "OBSERVED_VALUE": "~60%"}
{"COMPOUND": "OCCN1CCN(CCCN2c3ccccc3Sc3ccc(C(F)(F)F)cc32)CC1", "EXPERIMENTAL_ENDPOINT": "reduction in cell viability / toxicity", "OBSERVED_VALUE": "not toxic"}
{"COMPOUND": "C[C@@H]1CCCN1CCc1cc2cc(-c3ccc(C#N)cc3)ccc2o1", "EXPERIMENTAL_ENDPOINT": "reduction in cell viability / toxicity", "OBSERVED_VALUE": "not toxic"}

====

# System: SLEV
# PROCEDURE_DETAILS: Viral load by plaque-forming assay, SLEV-infected HBEC-5i
# Format: cell-based, St. Louis encephalitis virus (SLEV BeH 355964)
# ASSAY_CONDITIONS: 20 µM, MOI 0.1, 48 h
EXPERIMENTAL_ENDPOINT: reduction in viral titers in culture supernatant

Quick one: reduction in viral titers in culture supernatant of OCCN1CCN(CCCN2c3ccccc3Sc3ccc(C(F)(F)F)cc32)CC1 ?
> 100 fold

====

Form field: CC50 at 72 h (one value per entry).
# PROCEDURE_DETAILS: Confirmatory dose-response assay, cytotoxicity (CC50)
# ASSAY_CONDITIONS: African green monkey, Vero CCL81 cells
Numbers only; they are read as µM.

So what's the measured CC50 at 72 h for this one? CCN(CC)CCOc1ccc(C(O)(Cc2ccc(Cl)cc2)c2ccc(C)cc2)cc1 (stereo not drawn) [Triparanol]
18.5

Given C[C@@H]1CCCN1CCc1cc2cc(-c3ccc(C#N)cc3)ccc2o1 [ABT-239] , state its recorded CC50 at 72 h.
80.2

Query (compound): OCCN1CCN(CCCN2c3ccccc3Sc3ccc(C(F)(F)F)cc32)CC1 [Fluphenazine] ; field requested: CC50 at 72 h
30.2

====

# PROCEDURE_DETAILS: Confirmatory dose-response assay, cytotoxicity (CC50)
# ASSAY_CONDITIONS: African green monkey, Vero CCL81 cells
EXPERIMENTAL_ENDPOINT: CC50 at 72 h

{"COMPOUND_SMILES": "C[C@@]1(O)[C@H](O)[C@@H](CO)O[C@H]1n1ccc2c(N)ncnc21", "OBSERVED_VALUE": "> 100 µM"}
{"COMPOUND_SMILES": "COc1cccc(-c2ccc(NC(=O)C3=C(C(=O)O)CCC3)c(F)c2)c1", "OBSERVED_VALUE": "> 100 µM"}

Please give the measured CC50 at 72 h for this molecule: CC[C@@H]([C@H](C)O)n1ncn(-c2ccc(N3CCN(c4ccc(OC[C@@H]5CO[C@@](Cn6cncn6)(c6ccc(F)cc6F)C5)cc4)CC3)cc2)c1=O
> 100 µM
